The reader will find reported pIC50 values listed item by item below.
assayed_system: Thromboxane A2 receptor (Homo sapiens)
Sequence (P21731 whole entry): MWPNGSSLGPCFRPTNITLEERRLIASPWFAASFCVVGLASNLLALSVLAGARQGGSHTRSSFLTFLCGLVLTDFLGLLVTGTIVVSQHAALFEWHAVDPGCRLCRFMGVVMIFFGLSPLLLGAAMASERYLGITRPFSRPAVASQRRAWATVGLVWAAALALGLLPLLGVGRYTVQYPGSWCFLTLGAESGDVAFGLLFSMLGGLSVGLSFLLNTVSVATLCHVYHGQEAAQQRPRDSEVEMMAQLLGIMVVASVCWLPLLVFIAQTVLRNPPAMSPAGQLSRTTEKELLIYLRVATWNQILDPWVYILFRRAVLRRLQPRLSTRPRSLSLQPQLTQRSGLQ
protocol: Displacement of [3H]SQ-29548 from thromboxane receptor in human platelet membrane
pIC50: −log10 of the molar value.
measure: pIC50

>>> value_reported("O=C(O)CCn1c2c(c3ccccc31)C[C@H](NS(=O)(=O)c1ccc(F)cc1)CC2")
7.85
>>> value_reported("CN([C@@H]1CCc2c(c3nccnc3n2CC(=O)O)C1)S(=O)(=O)c1ccc(F)cc1")
"< 4.00"
>>> value_reported("CN([C@@H]1CCc2c(c3cccnc3n2CC(=O)O)C1)S(=O)(=O)c1ccc(F)cc1")
"< 4.00"
>>> value_reported("CN([C@@H]1CCc2c(CC(=O)O)c3ccccc3n2C1)S(=O)(=O)c1ccc(F)cc1")
"< 4.00"
>>> value_reported("CN([C@@H]1CCc2c(CC(=O)O)c3ncccc3n2C1)S(=O)(=O)c1ccc(F)cc1")
"< 4.00"
>>> value_reported("CN(C)c1nc(Cc2ccc(NC(=O)c3ccc(C(F)(F)F)cc3)cc2)nc(N(C)C)c1CC(=O)O")
4.20

---

assayed_system: UniProt P43119
Sequence (P43119 whole entry): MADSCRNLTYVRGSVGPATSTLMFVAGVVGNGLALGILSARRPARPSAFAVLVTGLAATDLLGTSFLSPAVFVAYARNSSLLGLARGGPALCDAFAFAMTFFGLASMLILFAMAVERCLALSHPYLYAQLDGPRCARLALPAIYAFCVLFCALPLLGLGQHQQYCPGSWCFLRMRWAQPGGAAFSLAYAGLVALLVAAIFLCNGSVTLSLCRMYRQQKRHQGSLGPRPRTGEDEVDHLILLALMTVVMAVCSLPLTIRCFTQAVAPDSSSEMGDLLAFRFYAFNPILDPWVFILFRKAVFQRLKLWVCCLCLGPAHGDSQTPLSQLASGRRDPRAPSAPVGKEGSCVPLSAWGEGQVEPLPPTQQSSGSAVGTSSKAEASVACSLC
protocol: Displacement of [3H]iloprost from human prostacyclin receptor expressed in human 293 cell membrane
Type: cell membranes
Reported IC50 values for the following molecules.
measure: IC50

>>> value_reported("CN([C@@H]1CCc2c(CC(=O)O)c3ccccn3c2C1)S(=O)(=O)c1ccc(F)cc1")
"> 100 µM"
>>> value_reported("CN([C@@H]1CCc2c(CC(=O)O)c3ncccc3n2C1)S(=O)(=O)c1ccc(F)cc1")
"> 100 µM"
>>> value_reported("CN([C@@H]1CCc2c(c3nccnc3n2CC(=O)O)C1)S(=O)(=O)c1ccc(F)cc1")
"> 100 µM"

---

assayed_system: Prostaglandin D2 receptor 2 (Homo sapiens)
Sequence (Q9Y5Y4 whole entry): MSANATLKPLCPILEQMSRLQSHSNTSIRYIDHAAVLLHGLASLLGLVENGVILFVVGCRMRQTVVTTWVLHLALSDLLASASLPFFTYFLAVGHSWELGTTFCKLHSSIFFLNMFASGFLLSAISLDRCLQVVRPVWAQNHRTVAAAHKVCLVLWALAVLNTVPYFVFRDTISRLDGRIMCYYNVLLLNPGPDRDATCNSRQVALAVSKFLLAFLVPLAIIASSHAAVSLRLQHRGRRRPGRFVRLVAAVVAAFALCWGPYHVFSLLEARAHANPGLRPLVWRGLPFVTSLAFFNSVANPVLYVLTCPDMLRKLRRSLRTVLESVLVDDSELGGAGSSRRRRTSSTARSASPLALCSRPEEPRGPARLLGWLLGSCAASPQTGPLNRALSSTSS
protocol: Displacement of [3H]PGD2 from human prostaglandin D2 receptor in presence of human serum albumin
pIC50: −log10 of the molar value.
measure: pIC50

>>> value_reported("CN([C@@H]1CCc2c(c3ncccc3n2CC(=O)O)C1)S(=O)(=O)c1ccc(F)cc1")
7.96
>>> value_reported("CN([C@@H]1CCC2=C(C1)C1C=CC=CC1N2CC(=O)O)S(=O)(=O)c1ccc(F)cc1 (some centres undefined)")
8.40
>>> value_reported("CN(C)c1nc(Cc2ccc(NC(=O)c3ccc(C(F)(F)F)cc3)cc2)nc(N(C)C)c1CC(=O)O")
6.13
>>> value_reported("CN([C@@H]1CCc2c(c3cccnc3n2CC(=O)O)C1)S(=O)(=O)c1ccc(F)cc1")
5.87

---

So I've got IC50 readings for Cytochrome P450 2C9 (Homo sapiens), take a look.
measure: IC50

>>> value_reported("CN([C@@H]1CCc2c(c3ncccc3n2CC(=O)O)C1)S(=O)(=O)c1ccc(F)cc1")
"> 30 µM"
>>> value_reported("Cc1c(Cc2ccc3ccccc3n2)c2cc(F)ccc2n1CC(=O)O")
"> 30 µM"
>>> value_reported("O=C(O)CCn1c2c(c3ccccc31)C[C@H](NS(=O)(=O)c1ccc(F)cc1)CC2")
"15 µM"
>>> value_reported("CN(C)c1nc(Cc2ccc(NC(=O)c3ccc(C(F)(F)F)cc3)cc2)nc(N(C)C)c1CC(=O)O")
"> 30 µM"
